system: HPPD polypeptides; experiment: coupled HPPD activity assay: turnover and residual turnover in crude extracts; type: biochemical, Pseudomonas fluorescens; conditions: presence of 100 μM Cmpd. 1; high substrate concentration; changes in absorbance (OD) at 320 nm
Readout: Residual turnover
Form rule: numeric answer, no unit written next to it.

Asked: Could you tell me which Residual turnover is on file for 66 (protein, mutant HPPD polypeptide) MADLYENPMGLMGFEFIEFASPTPGTLEPIFEIMGFTKVATHRSKNVHLYRQGEINLILNNEPNSIASYFAAEHGPSVCGMAFRVKDSQKAYNRALELGAQPIHIDTGPMELNLPAIKGIGGAPLYLIDRFGEGSSIYDIDFVYLEGVERNPVGAGLKVIDHLTHNVYRGRMVYWANFYEKLFNFREARYFDIKGEYTGLTSKAMSAPDGMIKIPLNEESSKGAGQIEEFLMQFNGEGIQHVAFLTDDLVKTWDALKKIGMRFMTAPADSYYEMLEGRLPDHGEPVDQLQARGILLDGSSVEGDKRLLLQIFSETLMGPVFFEFIQRKGDDGFGPHSFKVLFEQMERDQVRRGVLTAD ?
Given back: 0.187

Numbers sourced from patent US11180770B2.
